system: HS729; experiment: relative viability vs DMSO control (72 h) (fraction); higher = more viable cells; settings: 0.1235 µM
measurement_kind: relative viability

CO[C@H]1C[C@@H]2CC[C@@H](C)[C@@](O)(O2)C(=O)C(=O)N2CCCC[C@H]2C(=O)O[C@H]([C@H](C)C[C@@H]2CC[C@@H](OP(C)(C)=O)[C@H](OC)C2)CC(=O)[C@H](C)/C=C(\C)[C@@H](O)[C@@H](OC)C(=O)[C@H](C)C[C@H](C)/C=C/C=C/C=C/1C ... 0.916
Cn1cnc2c(F)c(Nc3ccc(Br)cc3F)c(C(=O)NOCCO)cc21 ... 0.898
CC(C)N1CCN(Cc2cnc(-c3cc(-c4cccc5[nH]ccc45)cc4[nH]ncc34)o2)CC1 ... 0.892

Lab note: next molecule to report on.
Name the recorded relative viability for C=CC(=O)N1CCC[C@@H](n2nc(-c3ccc(Oc4ccccc4)cc3)c3c(N)ncnc32)C1 . 0.907
